Item-by-item account of Kd
Target Entity: T1, Rb^P P595L (human, UniProt P06400 380-788, P595L)
T1 construct: also called variant 35
T1 sequence (looked up): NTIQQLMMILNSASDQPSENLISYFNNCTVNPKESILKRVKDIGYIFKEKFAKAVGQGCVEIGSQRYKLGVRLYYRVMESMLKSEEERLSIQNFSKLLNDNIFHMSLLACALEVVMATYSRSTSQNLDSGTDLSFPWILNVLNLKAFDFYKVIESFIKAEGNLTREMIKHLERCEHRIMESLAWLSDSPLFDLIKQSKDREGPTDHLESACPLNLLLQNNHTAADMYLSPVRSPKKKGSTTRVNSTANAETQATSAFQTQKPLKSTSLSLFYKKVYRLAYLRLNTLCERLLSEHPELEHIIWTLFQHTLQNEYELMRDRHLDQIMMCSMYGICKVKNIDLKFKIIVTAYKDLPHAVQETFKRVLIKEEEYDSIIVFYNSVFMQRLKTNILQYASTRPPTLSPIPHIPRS
Experiment Description: fluorescence polarisation; 37 °C, after the 25 °C reading ramped over 7 min to 37 °C and 2 min incubation; unlabeled Rb^P against 1.5 nM TMR-E2F1^TD or 7.5 nM TMR-E7^LxCxE; 25 mM Tris pH 8.0, 200 mM NaCl, 1 mM DTT, 0.1% Tween-20; apparent Kd
Reported Conditions: both partners purified
No end group written: not given here. TMR = tetramethyl rhodamine dye
Numbers only; they are read as µM.

DLYCYEQLN (also: TMR label, position not given here, source: synthetic peptide, bought: GenScript) [TMR-E7^LxCxE, LxCxE peptide of the E7 oncoprotein from HPV] ... 0.032

Item {TMR}-GEGIRDLFDCDFGDLTPLD (also called E2F^TD; source: synthetic peptide, bought: GenScript) [TMR-E2F1^TD, peptide of the E2F1 transactivation domain] has what recorded Kd?
0.083

This collection of values is drawn from paper PMC11931385.
